test system: HPV-16; assay: qPCR sensitivity against HPV-HNSCC tumor samples diluted among 10 ng normal human DNA; conditions: tumor DNA dilution, fraction of 32 samples
recorded.endpoint: Sensitivity, 10 cells

molecule: BR E1-5: HPV-16 E1 region primer/probe set, SEQ ID NO: 40-42 (same as SEQ ID NO: 1-3) (nucleic acid, chemistry not given here) DNA 1: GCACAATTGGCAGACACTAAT DNA 2: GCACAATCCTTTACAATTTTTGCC DNA 3: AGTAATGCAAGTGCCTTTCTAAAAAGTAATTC
number: 0.688
--
molecule: E6: previously designed (historical) HPV-16 E6 primers and Taqman probe, SEQ ID NO: 7-9, positive control (nucleic acid, Taqman probe, labels not given here) DNA 1: TCAGGACCCACAGGAGCG DNA 2: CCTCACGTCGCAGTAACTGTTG DNA 3: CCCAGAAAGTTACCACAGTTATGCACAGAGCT
number: 0.531
--
molecule: BR E1-6: HPV-16 E1 region primer/probe set, SEQ ID NO: 43-45 (nucleic acid, chemistry not given here) DNA 1: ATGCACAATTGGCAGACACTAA DNA 2: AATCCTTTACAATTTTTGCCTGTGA DNA 3: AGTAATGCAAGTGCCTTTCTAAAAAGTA
number: 0.625
--
molecule: E7: previously designed (historical) HPV-16 E7 primers and Taqman probe, SEQ ID NO: 10-12; part of CLIA test (nucleic acid, Taqman probe, labels not given here, part of CLIA test) DNA 1: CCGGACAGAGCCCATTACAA DNA 2: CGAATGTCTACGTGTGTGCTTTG DNA 3: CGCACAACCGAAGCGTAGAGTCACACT
number: 0.688
--
molecule: BR E6-1: HPV-16 E6 region (172-373 bp) primer/probe set, SEQ ID NO: 58-60 (nucleic acid, chemistry not given here) DNA 1: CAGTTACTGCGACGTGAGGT DNA 2: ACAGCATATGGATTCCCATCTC DNA 3: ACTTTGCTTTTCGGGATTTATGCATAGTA
number: 0.469
